experiment: Antioxidant activity assessed as H2O2 scavenging activity after 10 min by UV-Vis spectrophotometric analysis; assay type: functional
Recorded Endpoint: IC50 (mg/L)
State just the number; it will be interpreted in mg/L.

Some solved entries appear below for comparison.
Smiles Repr: Cc1ccc(/C=N/NC(=O)c2ccc(Cl)cc2)cc1
IC50 (mg/L): 4.3
//
Smiles Repr: COc1cc(/C=N/NC(=O)c2ccccc2C(=O)c2ccccc2)ccc1O
IC50 (mg/L): 79

Ask | Return reported IC50; argument: O=C(N/N=C/c1ccc([N+](=O)[O-])cc1)c1ccc(Cl)cc1
Reply | 1.8

----------
tested on: Aspergillus niger; assay: Antifungal activity against Aspergillus niger by agar well diffusion method; assay type: functional; conditions: Aspergillus niger
Response field label takes TRUE when MIC is strictly below 20 µg/mL and FALSE in all other cases.

Compound: O=C(N/N=C/c1cccc([N+](=O)[O-])c1)c1ccc(Cl)cc1
Class Assignment: TRUE
--
Compound: O=C(N/N=C/c1ccc([N+](=O)[O-])cc1)c1ccccc1C(=O)c1ccccc1
Class Assignment: FALSE
--
Compound: COc1cc(/C=N/NC(=O)c2ccccc2C(=O)c2ccccc2)ccc1O
Class Assignment: FALSE
--
Compound: O=C(N/N=C/c1ccccc1O)c1ccccc1C(=O)c1ccccc1
Class Assignment: FALSE

Ask | Consider OC(Cn1cncn1)(Cn1cncn1)c1ccc(F)cc1F [FLUCONAZOLE] . Does its MIC lie strictly below 20 µg/mL?
Reply | FALSE

----------
Below, each entry is listed with its recorded -logMIC.
test system: Pseudomonas aeruginosa; assay: Antibacterial activity against Pseudomonas aeruginosa by agar well diffusion method; format: functional

# count of solved cases: 5
Smiles Repr: Cc1ccc(/C=N/NC(=O)c2ccccc2C(=O)c2ccccc2)cc1
-logMIC: 1.4
--
Smiles Repr: COc1cc(/C=N/NC(=O)c2ccccc2C(=O)c2ccccc2)ccc1O
-logMIC: 1.69
--
Smiles Repr: O=C(N/N=C/c1ccc(O)cc1)c1ccccc1C(=O)c1ccccc1
-logMIC: 1.4
--
Smiles Repr: O=C(N/N=C/c1ccccc1)c1ccccc1C(=O)c1ccccc1
-logMIC: 0.81
--
Smiles Repr: O=C(N/N=C/c1cccc([N+](=O)[O-])c1)c1ccc(Cl)cc1
-logMIC: 1.4

Ask | Tell me the measured -logMIC of Cc1ccc(/C=N/NC(=O)c2ccc(Cl)cc2)cc1 , please.
Reply | 0.81

Ask | Please report the recorded -logMIC for O=C(N/N=C/c1c(O)ccc2ccccc12)c1ccc(Cl)cc1 .
Reply | 1.4

Ask | Would you mind telling me what -logMIC value was observed for O=C(N/N=C/c1ccccc1O)c1ccc(Cl)cc1 ?
Reply | 1.09

Ask | Which -logMIC is listed for O=C(N/N=C/c1ccc([N+](=O)[O-])cc1)c1ccccc1C(=O)c1ccccc1 ?
Reply | 1.3

----------
MIC: recorded values
system: Staphylococcus epidermidis; assay: Antibacterial activity against Staphylococcus epidermidis by agar well diffusion method; format: functional; conditions: Staphylococcus epidermidis
Number in µg/mL, nothing else.

Smiles Repr: O=C(N/N=C/c1cccc([N+](=O)[O-])c1)c1ccc(Cl)cc1
MIC (µg/mL): 50
//
Smiles Repr: O=C(N/N=C/c1ccccc1[N+](=O)[O-])c1ccccc1C(=O)c1ccccc1
MIC (µg/mL): 30

Then there is this compound:
Ask | Report MIC for O=C(N/N=C/c1ccccc1O)c1ccccc1C(=O)c1ccccc1 tested on Staphylococcus epidermidis.
Reply | 34

Where do the numbers come from? From ChEMBL document CHEMBL3045220.
